- TEST NAME: Proliferation of explant-derived (EX) human VSMC cultures
- Format: cell-based
- TEST PARAMETERS: human, aortic vsmc ex cultures
- Procedure: Human aortic VSMC cultures. Adult human VSMC were obtained from 6 transplant donors (either sex, age range from 3 to 54 years) using the enzyme dispersal or explant technique. In one case, the same donor (a person) was used to establish both an enzyme-dispersed (ED) and explant-derived (EX) cell culture. Prior to enzyme-dispersion or explanting treatment, human aortas were obtained within 18 h of death. […]

{"SMI": "CC/C(=C(\\c1ccccc1)c1ccc(OCCN(C)C)cc1)c1ccccc1", "MCC": "> 33 µM"}

FYI, the data here is from patent EP1510220B1.
